Data provenance is patent US20200239579A1.

Target: T1, PDLoneECDHisCtag (human, UniProt Q9NZQ7 19-238)
T1 construct: Expressed in HEK-293F cells; theoretical molecular weight 29 kDa; also called recombinant human PD-L1 ECD; human PD-L1 (BLI); not shown: C-terminal His-tag; C-tag
T1 sequence (Q9NZQ7 19-238, form in doubt): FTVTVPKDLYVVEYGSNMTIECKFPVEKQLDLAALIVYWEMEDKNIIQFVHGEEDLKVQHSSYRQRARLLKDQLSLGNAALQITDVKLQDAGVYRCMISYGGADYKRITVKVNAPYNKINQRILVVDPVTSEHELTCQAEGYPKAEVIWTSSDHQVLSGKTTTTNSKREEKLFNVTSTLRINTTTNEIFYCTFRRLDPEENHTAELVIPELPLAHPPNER
Assay: BLI cross-block, second antibody on PDLoneECDHisCtag held by immobilised 421-LC91S; bold = blocking
Description: Antibody cross-block testing was performed using biolayer interferometry (BLI) on an Octet HTX instrument (ForteBio). Antibodies (20 μg/ml in 10 mM sodium acetate buffer pH 6.0 (ForteBio)) were immobilized on Amine-Reactive 2nd Generation (AR2G) biosensors (ForteBio) according to the instructions of the manufacturer. […] Data was analyzed using Data Analysis Software v9.0.0.12 (ForteBio). […]
measured parameter: association response of the second antibody (nm)
Entry rule: numbers only, all in nm.

Query: Which value of association response of the second antibody has been reported for IgG1-421-LC91S-FEAR (antibody, V domains shown) VH: EVQLVESGGGLVQPGRSLRLSCAASGFTFDDYAMHWVRQGPGKGLEWVSGIRWNSGSMHYADSVKGRFTISRDNAKSSLYLQMNSLRAEDTALYYCARAPWYSGAWHPDYWGQGTLVTVSS VL: QSALTQPRSVSGSPGQSVTISCTGTSSDVGTYNYVSWYQQHPGKAPKLMIYDVIKRPSGVPDRFSGSKSGNTASLTLSGLQAEDEADYYCSSYAGTYTLLFGGGTKLTVL in the records?
Reply: 0
